Origin of measurements: patent US20090203775A1

# Test system: Coxsakie B3 virus
# experiment-summary: in vitro
# Format: cell-based
# condition-notes: African green monkey, Veo cells infected with Coxsakie B3 virus; Coxsakie B3 virus in Veo cells; read-out: SI (selective index, TC50/IC50)
quantity-kind: selectivity ratio at 36 h
Could you respond with only the numeric value?

Report the value of selectivity ratio at 36 h obtained on Coxsakie B3 virus for O=C1CC[C@H](c2ccc(O)c3c2C(=O)C2OC2[C@H]3O)c2cccc(O)c21 (stereo partly shown) .
2.88
